- testedOn: Type-1 angiotensin II receptor (Oryctolagus cuniculus)
- assaySummary: In vitro antagonism of Angiotensin II receptor, type 1 in isolated rabbit thoracic aorta
- Assay type: functional, tissue-based
Each record is given Condition met if its reported Kb is strictly below 500 nM. Records at or above 500 nM are given Condition not met.

INSERT INTO results (structureassmiles, categorylabel) VALUES
  ('CCCCCC[C@@H](C(=O)N1C[C@H](Oc2ccc(CC(=O)O)cc2)C[C@H]1C(=O)O)n1cnc(NC(=O)c2ccccc2S(=O)(=O)O)c1', 'Condition not met'),
  ('CCCCCC[C@H](C(=O)N1C[C@@H](Oc2ccc(CC(=O)O)cc2)C[C@@H]1C(=O)O)n1cnc(NC(=O)c2ccccc2S(=O)(=O)O)c1', 'Condition met'),
  ('CCCCCC[C@H](C(=O)N1C[C@H](Oc2ccc(CC(=O)O)cc2)C[C@@H]1C(=O)O)n1cnc(NC(=O)c2ccccc2S(=O)(=O)O)c1', 'Condition met'),
  ('CCCCCC[C@@H](C(=O)N1C[C@@H](Oc2ccc(CC(=O)O)cc2)C[C@H]1C(=O)O)n1cnc(NC(=O)c2ccccc2S(=O)(=O)O)c1', 'Condition met'),
  ('CCCCCC[C@H](C(=O)N1C[C@@H](Oc2ccc(CC(=O)O)cc2)C[C@H]1C(=O)O)n1cnc(NC(=O)c2ccccc2S(=O)(=O)O)c1', 'Condition met');

Input line: # check: Kb < 500 nM for "CCCCCC[C@@H](C(=O)N1C[C@@H](Oc2ccc(CC(=O)O)cc2)C[C@@H]1C(=O)O)n1cnc(NC(=O)c2ccccc2S(=O)(=O)O)c1"
Output line: Condition not met
